Consider the following compounds and their measured composite z-score readings.
- SYSTEM: Torsin-1A (Homo sapiens)
- MEASUREMENT_DESCRIPTION: torsin A binders from cell lysate, primary screen, small-molecule microarray, wild-type, 635/667 nm (AID 1149)
- RECORDED_CONDITIONS: COS7 hTOR1A-WT lysate, 635 nm fluorescence, higher = more signal

COMPOUND: NC(=O)NCC#Cc1ccc2c(c1)[C@]1(C(=O)N2)[C@H](c2ccc(O)cc2)N2[C@H](c3ccccc3)[C@H](c3ccccc3)OC(=O)[C@H]2[C@@H]1C(=O)N1CCCCCCC1
composite z-score: -0.067

COMPOUND: COc1ccc(O[C@H]2C=C[C@@H](c3ccccc3)O[C@@H]2CON=C[C@@H](C)[C@H](OCc2ccccc2)C(C)C)cc1
composite z-score: -1.53

COMPOUND: C=C(COC)/C(=C/C[C@H](OC(=O)c1ccncc1)c1ccc(CO)o1)c1cc(C(=O)OC)ccc1OC
composite z-score: 0.787

COMPOUND: CC(=O)O[C@H]1C2=C(C(=O)[C@@H]3O[C@@H]31)[C@H]1C(C)O[C@@H]2[C@@]23C(=O)[C@@H]4O[C@@H]4[C@@H](O)C2=CO[C@H](C)[C@@H]13 (some centres not stated)
composite z-score: 0.0116

COMPOUND: COC(=O)[C@@H]1CC[C@H](C)[C@@H](c2ccc(C)cc2)N1C(=O)c1ccc(C=NOC(C)CN2CCCCc3nc(C)c(C)cc32)cc1 (some centres not stated)
composite z-score: -0.269

COMPOUND: O=C1[C@H]2[C@H]3[C@H](O)[C@H](O)CC(=NOCc4ccccc4)[C@H]3CC[C@H]2C(=O)N1C[C@@H]1CCCO1
composite z-score: 0.95

COMPOUND: CC(=O)OC[C@H]1O[C@H](C#CCCCc2ccccc2)C=C[C@@H]1OC(C)=O
composite z-score: -0.0078

* * *

- MEASUREMENT_DESCRIPTION: CREB reporter modulators under forskolin, primary screen, cell-based, PC12, CRE-LacZ reporter, forskolin-stimulated (AID 1146);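 also: PC12 cells with 6xCRE LacZ reporter stimulated by forskolin 10 µM; beta-galactosidase reporter signal reflecting CREB driven transcription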
- RECORDED_CONDITIONS: luminescence, 4.5 h, higher = more signal, called active from +8 up or from −8 down
PROPERTY_LABEL: z-score

COMPOUND: CC(=O)OC[C@H]1O[C@H](CC=NOC[C@@H](C)[C@H](OCc2ccccc2)C(C)C)C=C[C@@H]1OC(C)=O
PROPERTY_LABEL: z-score
OBSERVED_VALUE: 0.494
//
COMPOUND: C[C@@H](c1ccccc1)N1C(=O)[C@H]2[C@H]3[C@H](O)[C@H](O)CC(=NNC(=O)OCc4ccccc4)[C@H]3CC[C@H]2C1=O
PROPERTY_LABEL: z-score
OBSERVED_VALUE: -0.0874
//
COMPOUND: CC(=O)OC[C@H]1O[C@@H](ON=C[C@@H](C)[C@H](OCc2ccccc2)C(C)C)[C@H](OC(C)=O)[C@@H](OC(C)=O)[C@@H]1OC(C)=O
PROPERTY_LABEL: z-score
OBSERVED_VALUE: 0.1
//
COMPOUND: C#CCCCON=C1C[C@@H](O)[C@@H](O)[C@@H]2[C@@H]3C(=O)N(Cc4ccccc4)C(=O)[C@@H]3CC[C@H]12
PROPERTY_LABEL: z-score
OBSERVED_VALUE: -0.645
//
COMPOUND: O=C1[C@H]2[C@H]3[C@H](O)[C@H](O)CC(=NOC[C@@H](O)COCc4ccco4)[C@H]3CC[C@H]2C(=O)N1C1CCCCC1
PROPERTY_LABEL: z-score
OBSERVED_VALUE: 0.279
//
COMPOUND: COCCOC(=O)N1C(=O)[C@@]2(c3cc(C#CCNC(N)=O)ccc31)[C@H](c1ccc(O)cc1)N1[C@H](c3ccccc3)[C@H](c3ccccc3)OC(=O)[C@H]1[C@@H]2C(=O)N1CCCCCCC1
PROPERTY_LABEL: z-score
OBSERVED_VALUE: 0.357
//
COMPOUND: CCCC=C(CCC)[C@@H](NC(=O)c1ccc(-c2ccccc2)cc1)c1ccc(C(=O)OC)cc1
PROPERTY_LABEL: z-score
OBSERVED_VALUE: 0.381
//
COMPOUND: CC(C)C[C@@H]1NC(=O)[C@H]2C[C@@H](C(=O)O)[C@@H](c3ccc(O)cc3)N2C1=O
PROPERTY_LABEL: z-score
OBSERVED_VALUE: -0.627
//
COMPOUND: CCOC(=O)[C@H](Cc1ccccc1)NC(=O)CCC1CC(OC(=O)NCCc2ccc(F)cc2)CC2(CCCC(COC(=O)NCC(c3ccccc3)c3ccccc3)O2)O1 (stereo partly drawn)
PROPERTY_LABEL: z-score
OBSERVED_VALUE: 1.23
//
COMPOUND: CC(CCC(=O)OC[C@H]1O[C@H](C#Cc2ccccc2)C=C[C@@H]1Oc1ccc(C)cc1)=NOC[C@@H](O)COCc1ccco1
PROPERTY_LABEL: z-score
OBSERVED_VALUE: 1.9
//
COMPOUND: COc1ccc(O[C@H]2C=C[C@@H](c3ccccc3)O[C@@H]2CON=C[C@@H](C)[C@H](OCc2ccccc2)C(C)C)cc1
PROPERTY_LABEL: z-score
OBSERVED_VALUE: 0.367
//
COMPOUND: CCOC(=O)NN=C1C[C@@H](O)[C@@H](O)[C@@H]2[C@@H]3C(=O)N(C4CCCCC4)C(=O)[C@@H]3CC[C@@H]12
PROPERTY_LABEL: z-score
OBSERVED_VALUE: 0.366
//
COMPOUND: COCCOC(=O)N1C(=O)[C@@]2(c3cc(C#Cc4ccc(OC)cc4)ccc31)[C@H](C(=O)N1CCN(c3ncccn3)CC1)[C@H]1C(=O)O[C@H](c3ccccc3)[C@H](c3ccccc3)N1[C@@H]2c1ccc(OCCO)cc1
PROPERTY_LABEL: z-score
OBSERVED_VALUE: -0.242
